Each recorded value in this set is attributed to the RNAGym collection of RNA variant scans (doi:10.1093/molbev/msab373).

B1: Azoarcus group I ribozyme (parent)
chain: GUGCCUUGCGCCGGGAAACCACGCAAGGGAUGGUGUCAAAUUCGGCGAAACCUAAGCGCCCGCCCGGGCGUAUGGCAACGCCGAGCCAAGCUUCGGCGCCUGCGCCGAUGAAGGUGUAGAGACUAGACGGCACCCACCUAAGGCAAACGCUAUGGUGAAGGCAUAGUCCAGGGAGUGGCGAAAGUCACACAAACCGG

Variants of: B1
Test: reverse-splicing fitness (ratio to wild type); higher = more active; in vitro selection; Mg2+ level not given
So basically: reverse-splicing fitness at 0.01 or higher? That is Yes. Lower than 0.01? That is No.

Can C82A A111G A120U C150U C169G U176G be said to have reverse-splicing fitness at or above 0.01? No

Can C82U A111G A120U A145G C169A U176C be said to have reverse-splicing fitness at or above 0.01? No

Can C82G A120G A145C C150G be said to have reverse-splicing fitness at or above 0.01? No

Can C82U A145U C150G C169A be said to have reverse-splicing fitness at or above 0.01? No

Can C82A A145C C150U C169A U176G be said to have reverse-splicing fitness at or above 0.01? No

Can C82U A111C A120G C150G be said to have reverse-splicing fitness at or above 0.01? No

Can C82U A111G A120U A145U C169G U176C be said to have reverse-splicing fitness at or above 0.01? No

Can A111G A120C A145C C150G U176A be said to have reverse-splicing fitness at or above 0.01? Yes

Can A111G A120U A145G C150U C169A U176G be said to have reverse-splicing fitness at or above 0.01? No

Can C82G A120C A145U C150G C169A U176A be said to have reverse-splicing fitness at or above 0.01? Yes

Can A111U A120U A145G C150U C169U U176A be said to have reverse-splicing fitness at or above 0.01? Yes

Can A111U A120U A145C C150U C169A U176C be said to have reverse-splicing fitness at or above 0.01? No

Can C82U A111G A120U A145G C150G C169A U176A be said to have reverse-splicing fitness at or above 0.01? No

Can C82U A111U A120G A145C C150A C169A U176G be said to have reverse-splicing fitness at or above 0.01? No

Can C82G A111U A120U A145U C150U C169G be said to have reverse-splicing fitness at or above 0.01? No

Can A111U A120C A145G C150G C169U U176A be said to have reverse-splicing fitness at or above 0.01? Yes

Can C82U A111U A145C C150A C169G U176C be said to have reverse-splicing fitness at or above 0.01? Yes

Can C82A A111C A120U A145C C150U C169U U176A be said to have reverse-splicing fitness at or above 0.01? No

Can A111U A145G C150A C169G U176G be said to have reverse-splicing fitness at or above 0.01? No

Can C82G A111U A120G A145G U176A be said to have reverse-splicing fitness at or above 0.01? Yes

Can A111G A120U A145C C169G be said to have reverse-splicing fitness at or above 0.01? Yes

Can C82U A111U A120G A145C C169G U176A be said to have reverse-splicing fitness at or above 0.01? Yes

Can C82A A111U A120U A145C be said to have reverse-splicing fitness at or above 0.01? Yes

Can C82U A111G A120C A145U C150G U176A be said to have reverse-splicing fitness at or above 0.01? No

Can C82G A111G A120U A145C C150U C169U U176A be said to have reverse-splicing fitness at or above 0.01? No

Can A111U A120C C150U be said to have reverse-splicing fitness at or above 0.01? Yes

Can C82A A111C A120U A145U C150A U176C be said to have reverse-splicing fitness at or above 0.01? No

Can C82U A145G C150A C169U U176G be said to have reverse-splicing fitness at or above 0.01? No

Can A111C A120G C150G C169A U176G be said to have reverse-splicing fitness at or above 0.01? No

Can C82A A111U A145C C150G be said to have reverse-splicing fitness at or above 0.01? Yes

Can A120G C150G C169G U176C be said to have reverse-splicing fitness at or above 0.01? No

Can C82U A111C A120G A145G C150G C169U U176G be said to have reverse-splicing fitness at or above 0.01? No

Can C82U A111G A120G A145C C150A C169U U176C be said to have reverse-splicing fitness at or above 0.01? No

Can C82G A120G A145G C150G C169U U176A be said to have reverse-splicing fitness at or above 0.01? Yes

Can C82G A111C A145G C150U U176A be said to have reverse-splicing fitness at or above 0.01? Yes

Can C82U A111C A120G A145U C169G U176C be said to have reverse-splicing fitness at or above 0.01? Yes

Can C82U A111U A145U C150A C169G U176A be said to have reverse-splicing fitness at or above 0.01? Yes

Can C82A A111U A120U A145C C150G C169G be said to have reverse-splicing fitness at or above 0.01? No

Can C82U A111U A145C C150G U176C be said to have reverse-splicing fitness at or above 0.01? Yes

Can C82G A111C A145G C150A C169U U176G be said to have reverse-splicing fitness at or above 0.01? No

Can C82A A111U A120U A145U C169U U176G be said to have reverse-splicing fitness at or above 0.01? No

Can C82U A111C A120C A145G C169U U176G be said to have reverse-splicing fitness at or above 0.01? No

Can C82U A111C A145G C150A be said to have reverse-splicing fitness at or above 0.01? Yes

Can A111U A145U C150A U176C be said to have reverse-splicing fitness at or above 0.01? Yes

Can C82G A111U A120C A145C C150A U176C be said to have reverse-splicing fitness at or above 0.01? Yes

Can C82G A111G A120G A145C C150G C169U U176G be said to have reverse-splicing fitness at or above 0.01? No

Can C82A A111C A120C A145G C150U C169U be said to have reverse-splicing fitness at or above 0.01? Yes

Can C82U A111U A120U C150G C169A U176A be said to have reverse-splicing fitness at or above 0.01? No

Can C82U A111G A120U A145U C150A U176A be said to have reverse-splicing fitness at or above 0.01? No

Can A111G A120C A145G C169G U176C be said to have reverse-splicing fitness at or above 0.01? Yes

Can C82U A111C A120G A145G C150A C169U U176G be said to have reverse-splicing fitness at or above 0.01? No

Can C82U A111U A120U C150A C169G U176G be said to have reverse-splicing fitness at or above 0.01? No

Can A111G A120U A145G C150U C169U be said to have reverse-splicing fitness at or above 0.01? Yes

Can C82A A120C A145G C169U be said to have reverse-splicing fitness at or above 0.01? Yes

Can C82A A111G A120U C150U C169U U176A be said to have reverse-splicing fitness at or above 0.01? No

Can C82G A111G A145U C150G U176C be said to have reverse-splicing fitness at or above 0.01? Yes

Can A111U A145G C150U C169G be said to have reverse-splicing fitness at or above 0.01? Yes

Can C82G A145U C150G C169U U176G be said to have reverse-splicing fitness at or above 0.01? No

Can A120G A145C C169G U176G be said to have reverse-splicing fitness at or above 0.01? Yes

Can C82U A120U A145C C150G C169U U176G be said to have reverse-splicing fitness at or above 0.01? No

Can C82A A111G A145G C150G C169A U176G be said to have reverse-splicing fitness at or above 0.01? No

Can C82U A111G A120G A145G C150A U176G be said to have reverse-splicing fitness at or above 0.01? No

Can C82A A145U C150A C169U U176C be said to have reverse-splicing fitness at or above 0.01? Yes

Can C82A A111U A145C C150U C169A U176G be said to have reverse-splicing fitness at or above 0.01? No

Can C82A A111C A120C A145U C169G U176G be said to have reverse-splicing fitness at or above 0.01? No

Can C82G A111U A120U A145G C150G C169U U176A be said to have reverse-splicing fitness at or above 0.01? No

Can A120U A145U C150U C169G U176A be said to have reverse-splicing fitness at or above 0.01? Yes

Can A120G A145G C150A U176A be said to have reverse-splicing fitness at or above 0.01? Yes

Can C82U A120C A145C C150G C169U be said to have reverse-splicing fitness at or above 0.01? Yes

Can C82G A120G A145C C150U C169G U176G be said to have reverse-splicing fitness at or above 0.01? No

Can C82U A111U A120C A145U C150U C169A U176G be said to have reverse-splicing fitness at or above 0.01? No

Can C82U A111C A145G U176G be said to have reverse-splicing fitness at or above 0.01? Yes

Can C82A C169A U176C be said to have reverse-splicing fitness at or above 0.01? Yes

Can C82G A120G A145C C150U be said to have reverse-splicing fitness at or above 0.01? Yes

Can C82A A111G A120U A145C C150A C169A be said to have reverse-splicing fitness at or above 0.01? No

Can C82G A111G A120U A145U C169A U176C be said to have reverse-splicing fitness at or above 0.01? No

Can C82A A111U A120U C150G C169A U176A be said to have reverse-splicing fitness at or above 0.01? No

Can A111U A145C C150U U176A be said to have reverse-splicing fitness at or above 0.01? Yes

Can A111G A120C A145G C150U C169G U176G be said to have reverse-splicing fitness at or above 0.01? No

Can C82U A111G A120U C150A C169G U176C be said to have reverse-splicing fitness at or above 0.01? No

Can A111G A120C C150U C169A be said to have reverse-splicing fitness at or above 0.01? Yes

Can C82A A111G A145U C150U U176A be said to have reverse-splicing fitness at or above 0.01? Yes

Can C82U A111G A120G A145C C150G C169U U176G be said to have reverse-splicing fitness at or above 0.01? No

Can C82A A120U C150A C169U U176C be said to have reverse-splicing fitness at or above 0.01? No

Can A111G A120C A145C C150U U176C be said to have reverse-splicing fitness at or above 0.01? Yes

Can A145G C169U U176G be said to have reverse-splicing fitness at or above 0.01? Yes

Can A111C A120U C150G C169A U176C be said to have reverse-splicing fitness at or above 0.01? No

Can A111G A120C A145U C150U C169U U176A be said to have reverse-splicing fitness at or above 0.01? Yes

Can C82G A111C A120G A145C C169A U176C be said to have reverse-splicing fitness at or above 0.01? No

Can A111C A120G A145U C169G U176C be said to have reverse-splicing fitness at or above 0.01? Yes
